# Target system: UniProt:P49840
# Sequence (P49840 whole entry, species assumed): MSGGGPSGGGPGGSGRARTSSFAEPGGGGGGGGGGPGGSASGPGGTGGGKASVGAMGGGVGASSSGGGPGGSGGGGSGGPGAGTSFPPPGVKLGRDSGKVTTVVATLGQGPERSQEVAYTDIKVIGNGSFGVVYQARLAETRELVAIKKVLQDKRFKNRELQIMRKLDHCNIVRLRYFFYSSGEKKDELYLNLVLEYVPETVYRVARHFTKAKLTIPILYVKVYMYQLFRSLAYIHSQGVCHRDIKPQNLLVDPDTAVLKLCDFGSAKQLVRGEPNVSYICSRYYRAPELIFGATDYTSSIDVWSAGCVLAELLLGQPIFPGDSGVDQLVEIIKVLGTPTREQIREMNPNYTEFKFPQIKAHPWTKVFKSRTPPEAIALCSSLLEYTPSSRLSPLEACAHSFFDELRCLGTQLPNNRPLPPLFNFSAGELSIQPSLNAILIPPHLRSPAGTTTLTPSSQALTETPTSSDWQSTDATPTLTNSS
# Assay method text: GSK3α kinase assay (Caliper LabChip, fluoresceinated peptide substrate)
# Assay type: biochemical
API: label(entry) gives Fulfilled if the entry's IC50 is strictly smaller than 2 nM; on equality or larger values it gives Not fulfilled.

Smiles string: NS(=O)(=O)c1ccc(Nc2cc(C(=O)Nc3cncc(-c4ccccc4F)c3)ccn2)nc1
Category: Fulfilled
--
Smiles string: CC(=O)c1c(NC(=O)c2ccnc(Nc3ccc(C(F)(F)F)cn3)c2)cnn1C
Category: Not fulfilled
--
Smiles string: COc1ccc(-c2ccncc2NC(=O)c2ccnc(Nc3ccc(C(F)(F)F)cn3)c2)c(F)c1
Category: Fulfilled
--
Smiles string: CC(C)(C)COc1cc(F)ncc1NC(=O)c1ccnc(Nc2ccc(Cl)cn2)c1
Category: Not fulfilled
--
Smiles string: CCOc1ccncc1NC(=O)c1ccnc(Nc2nccc3ccccc23)c1
Category: Not fulfilled
--
Smiles string: O=C(Nc1cncc(-n2ccc(C(F)(F)F)n2)c1)c1ccnc(Nc2ccc(C(F)(F)F)cn2)c1
Category: Not fulfilled
--
Smiles string: O=C(Nc1cncnc1OCC(F)(F)F)c1ccnc(Nc2ccc(C(F)(F)F)cn2)c1
Category: Fulfilled

meta.source: patent US9718804B2
